# System: SF-295
# ASSAY EXPLANATION: Cell growth inhibition, brain cancer cell line SF-295
# Assay type: cell-based
# STUDY CONDITIONS: SF-295, brain cancer cell line
# Protocol: KB cells were purchased from Human Science Research Resource Bank (Osaka, Japan). The cells were cultured in Earle's MEM (GIBCO BRL) containing 10% FBS (Bio Whittaker) at 37° C. under 5% CO2. After 24 hours the test compounds were added to the cells at the indicated concentrations. 72 hours later the cells were stained with tripan blue and counted manually. IC50 is calculated as the concentration (aqueous solution) of complex required to inhibit growth of cells by 50%. […]
ASSAY METRIC: log10 IC50 (M)

{"COMPOUND": "N.N.O.O.O.O.O.O.O.O=P([O-])([O-])OC1C(OP(=O)([O-])[O-])C(OP(=O)([O-])[O-])C(OP(=O)([O-])[O][Pt+])C(OP(=O)([O-])[O-])C1OP(=O)([O-])[O-].[Na+].[Na+].[Na+].[Na+].[Na+].[Na+].[Na+].[Na+].[Na+].[Na+] (stereo not shown) [Example 9, Pt(NH3)—IP6 Pt(NH3)2.IP6.10Na.7H2O]", "TARGET UNDER TEST": "SF-295", "OBSERVED VALUE": -4.46}
{"COMPOUND": "[Cl-].[Cl-].c1cc[n+]2c(c1)-c1cccc[n+]1[Pd-2]21[NH2+]CC[NH+]1Cc1c2ccccc2cc2ccccc12 [Example 5, [Pd(bpy)(Aten)]Cl2]", "TARGET UNDER TEST": "SF-295", "OBSERVED VALUE": -5.31}
{"COMPOUND": "[Cl-].[Cl-].c1cc[n+]2c(c1)-c1cccc[n+]1[Pt-2]21[NH2+]CCC[NH+]1Cc1c2ccccc2cc2ccccc12", "TARGET UNDER TEST": "SF-295", "OBSERVED VALUE": -5.62}
{"COMPOUND": "[Cl-].[Cl-].c1cc[n+]2c(c1)-c1cccc[n+]1[Pt-2]21[NH2+]CC[NH+]1Cc1c2ccccc2cc2ccccc12 [Example 4, [Pt(bpy)(Aten)]Cl2]", "TARGET UNDER TEST": "SF-295", "OBSERVED VALUE": -4.9}

* * *

# Tested on: OVCAR-4
# ASSAY EXPLANATION: Cell growth inhibition, ovarian cancer cell line OVCAR-4
# Type: cell-based
# STUDY CONDITIONS: OVCAR-4, ovarian cancer cell line
ASSAY METRIC: log10 IC50 (M)

{"MOLECULE": "[Cl-].[Cl-].c1cc[n+]2c(c1)-c1cccc[n+]1[Pd-2]21[NH2+]CC[NH+]1Cc1c2ccccc2cc2ccccc12 [Example 5, [Pd(bpy)(Aten)]Cl2]", "ASSAY METRIC": "log10 IC50 (M)", "OBSERVED VALUE": -5.06}
{"MOLECULE": "[Cl-].[Cl-].c1cc[n+]2c(c1)-c1cccc[n+]1[Pt-2]21[NH2+]CC[NH+]1Cc1c2ccccc2cc2ccccc12 [Example 4, [Pt(bpy)(Aten)]Cl2]", "ASSAY METRIC": "log10 IC50 (M)", "OBSERVED VALUE": -4.19}
{"MOLECULE": "N.N.O.O.O.O.O.O.O.O=P([O-])([O-])OC1C(OP(=O)([O-])[O-])C(OP(=O)([O-])[O-])C(OP(=O)([O-])[O][Pt+])C(OP(=O)([O-])[O-])C1OP(=O)([O-])[O-].[Na+].[Na+].[Na+].[Na+].[Na+].[Na+].[Na+].[Na+].[Na+].[Na+] (stereo not shown) [Example 9, Pt(NH3)—IP6 Pt(NH3)2.IP6.10Na.7H2O]", "ASSAY METRIC": "log10 IC50 (M)", "OBSERVED VALUE": -4.42}
{"MOLECULE": "[Cl-].[Cl-].c1cc[n+]2c(c1)-c1cccc[n+]1[Pt-2]21[NH2+]CCC[NH+]1Cc1c2ccccc2cc2ccccc12 [Example 7, Pt(bpy)(AtC3)]", "ASSAY METRIC": "log10 IC50 (M)", "OBSERVED VALUE": -5.7}
